assay: Enzymatic screening: simultaneous assay of the two methylation activities of PapM (ratio r); assay type: biochemical, S. pristinaespiralis; details: 7 sequenced clones; experiment in which wild-type ratio was 0.40
reported_metric: Ratio (r redetermined)
Output spec: single numeric token, no unit.

[[record]]
molecule = "Mutant 74D5: PapM variant clone, Met226 > Ile (same substitution as mutant 69) (protein, UniProt P72542 1-292, looked up, variant M226I) 4-amino-L-phenylalanine/4-meth …: MTAAAPTLAQALDEATGQLTGAGITADAARADTRLLAAHACQVAPGDLDTCLAGPVPPRFWHYVRRRLTREPAERIVGHAYFMGHRFDLAPGVFVPKPETEEITRDAIARLEALVRRGTTAPLVVDLCAGPGTMAVTLARHVPAARVLGIELSQAAARAARRNARGTGARIVQGDARDAFPELSGTVDLVVTNPPYIPIGLRTSAPEVLEHDPPLALWAGEEGLGIIRAMERTAARLLAPGGVLLLEHGSYQLASVPALFRATGRWSHASSRPTCNDGCLTAVRNHTCAPPA"
reported = 0.52

[[record]]
molecule = "Mutant 74D4: PapM variant clone, Gly249 > Ser (same substitution as mutant 49) (protein, UniProt P72542 1-292, looked up, variant G249S) 4-amino-L-phenylalanine/4-meth …: MTAAAPTLAQALDEATGQLTGAGITADAARADTRLLAAHACQVAPGDLDTCLAGPVPPRFWHYVRRRLTREPAERIVGHAYFMGHRFDLAPGVFVPKPETEEITRDAIARLEALVRRGTTAPLVVDLCAGPGTMAVTLARHVPAARVLGIELSQAAARAARRNARGTGARIVQGDARDAFPELSGTVDLVVTNPPYIPIGLRTSAPEVLEHDPPLALWAGEEGLGMIRAMERTAARLLAPGGVLLLEHSSYQLASVPALFRATGRWSHASSRPTCNDGCLTAVRNHTCAPPA"
reported = 0.63

[[record]]
molecule = "Mutant 45: PapM variant Thr274 > Ile (protein, UniProt P72542 1-292, looked up, variant T274I) 4-amino-L-phenylalanine/4-meth …: MTAAAPTLAQALDEATGQLTGAGITADAARADTRLLAAHACQVAPGDLDTCLAGPVPPRFWHYVRRRLTREPAERIVGHAYFMGHRFDLAPGVFVPKPETEEITRDAIARLEALVRRGTTAPLVVDLCAGPGTMAVTLARHVPAARVLGIELSQAAARAARRNARGTGARIVQGDARDAFPELSGTVDLVVTNPPYIPIGLRTSAPEVLEHDPPLALWAGEEGLGMIRAMERTAARLLAPGGVLLLEHGSYQLASVPALFRATGRWSHASSRPICNDGCLTAVRNHTCAPPA"
reported = 0.52


Now let's try a different one.
Incoming: Record request: Ratio (r redetermined) value, item Mutant 52: PapM variant Gly249 > Asp (protein, UniProt P72542 1-292, looked up, variant G249D) 4-amino-L-phenylalanine/4-meth …: MTAAAPTLAQALDEATGQLTGAGITADAARADTRLLAAHACQVAPGDLDTCLAGPVPPRFWHYVRRRLTREPAERIVGHAYFMGHRFDLAPGVFVPKPETEEITRDAIARLEALVRRGTTAPLVVDLCAGPGTMAVTLARHVPAARVLGIELSQAAARAARRNARGTGARIVQGDARDAFPELSGTVDLVVTNPPYIPIGLRTSAPEVLEHDPPLALWAGEEGLGMIRAMERTAARLLAPGGVLLLEHDSYQLASVPALFRATGRWSHASSRPTCNDGCLTAVRNHTCAPPA
Outgoing: 0.66
